- System: UO-31
- experiment.description: NCI tumour cell line growth inhibition, 48 h
Calls of active or inactive are those of the source. Rule as the data show it: active = GI50 up to about 1.1 µM and inactive = higher. *1 amine or outer side, *2 acyl side, *3 side chain or, on linkers, in order; H or OH if unused. Where a SMILES comes first, the peptide text is derived from it. [ ]: non-standard residue; d: D form. The star is where a group is joined. ξ: configuration not given here. X53 = CC(C)C[C@H](N[*:1])C1=N[C@H](C(=O)[*:2])CS1; Ile(3ξ) = CCC(C)[C@H](N)C(=O)O; Allyl(1,1-Me2) = C=CC(C)(C)*
# reported GI50; entries follow
value.kind: GI50

compound="CC(=O)Oc1ccc(/C=C/C(=O)NCC(NC(=O)/C=C/c2ccc(OC(C)=O)c(OC(C)=O)c2)C(=O)O)cc1OC(C)=O (centres undefined)" test_system=UO-31 data_value="> 100 µM (inactive)"
compound=O=Cc1ccccc1CCn1c(=O)c2cc3c(=O)n(CCc4ccccc4C=O)c(=O)c3cc2c1=O test_system=UO-31 data_value="> 100 µM (inactive)"
compound="Cc1cc(O)nc(NN2C(Cl)C(=O)C2c2cccc(Cl)c2)n1 (centres undefined)" test_system=UO-31 data_value="24.2 µM (inactive)"
compound=CCCCNN test_system=UO-31 data_value="> 100 µM (inactive)"
compound="O=C(CC1(O)C(=O)Nc2c(Cl)ccc(Cl)c21)c1ccc(Cl)cc1 (centres undefined)" test_system=UO-31 data_value="34.4 µM (inactive)"
compound=C/C(CC(=O)Nc1ccc([N+](=O)[O-])cc1)=N\NC(N)=O test_system=UO-31 data_value="> 100 µM (inactive)"
compound="N#CC1(C2CC(=O)N(c3ccccc3)C2=O)CCCCC1=O (centres undefined)" test_system=UO-31 data_value="> 100 µM (inactive)"
compound="Cc1ccccc1C1CC(c2ccccc2)=NO1 (centres undefined)" test_system=UO-31 data_value="> 100 µM (inactive)"
compound="C=CC(C)(C)OC[C@@H]1NC(=O)CNC(=O)[C@@H]2CCCN2C(=O)[C@H](C(C)CC)NC(=O)[C@@H]2CSC(=N2)[C@H](CC(C)C)NC1=O (some centres undefined) (cyclo(GS(Allyl(1,1-Me2))[X53][Ile(3ξ)]P))" test_system=UO-31 data_value="41.6 µM (inactive)"
